biological target: Phosphatidylinositol 4,5-bisphosphate 3-kinase catalytic subunit alpha isoform (Homo sapiens) (UniProt P42336); settings: at 1 µM;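 further: values are mean percent inhibition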
Sequence (P42336 whole entry, canonical isoform): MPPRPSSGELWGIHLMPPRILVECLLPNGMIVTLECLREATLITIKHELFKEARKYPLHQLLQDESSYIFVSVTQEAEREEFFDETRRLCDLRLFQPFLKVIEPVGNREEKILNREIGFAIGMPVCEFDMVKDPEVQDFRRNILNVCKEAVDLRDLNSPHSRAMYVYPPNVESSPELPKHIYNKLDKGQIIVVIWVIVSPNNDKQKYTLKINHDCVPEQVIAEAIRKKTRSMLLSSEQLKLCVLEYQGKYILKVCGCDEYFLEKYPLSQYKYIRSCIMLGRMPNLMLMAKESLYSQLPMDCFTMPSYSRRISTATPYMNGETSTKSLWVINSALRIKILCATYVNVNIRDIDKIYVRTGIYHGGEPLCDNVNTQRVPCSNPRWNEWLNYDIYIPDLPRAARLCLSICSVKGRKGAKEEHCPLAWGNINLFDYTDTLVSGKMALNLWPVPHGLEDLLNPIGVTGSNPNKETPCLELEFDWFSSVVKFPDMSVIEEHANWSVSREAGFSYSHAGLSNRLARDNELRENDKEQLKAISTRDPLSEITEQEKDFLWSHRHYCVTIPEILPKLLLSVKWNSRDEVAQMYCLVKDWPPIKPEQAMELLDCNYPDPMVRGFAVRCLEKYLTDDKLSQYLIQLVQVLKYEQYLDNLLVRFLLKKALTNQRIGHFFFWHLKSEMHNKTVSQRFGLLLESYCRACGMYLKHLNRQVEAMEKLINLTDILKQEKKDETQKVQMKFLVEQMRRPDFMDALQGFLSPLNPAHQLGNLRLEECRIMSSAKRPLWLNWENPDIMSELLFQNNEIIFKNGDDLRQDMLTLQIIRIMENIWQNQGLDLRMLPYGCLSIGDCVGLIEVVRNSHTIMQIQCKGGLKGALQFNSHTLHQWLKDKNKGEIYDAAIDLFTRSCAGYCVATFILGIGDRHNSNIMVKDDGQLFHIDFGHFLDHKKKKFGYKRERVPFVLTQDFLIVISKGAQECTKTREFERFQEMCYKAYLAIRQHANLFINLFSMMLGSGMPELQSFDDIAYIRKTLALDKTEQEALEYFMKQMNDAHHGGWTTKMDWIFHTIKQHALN

- mol: "CC(C)COC(=O)c1ccc2c(c1)/C(=C/Nc1ccc(S(N)(=O)=O)cc1)C(=O)N2"
  inhibition (%): -1.43
- mol: "O=C(Nc1n[nH]c2cc(-c3ccc(F)cc3)ccc12)C1CC1"
  inhibition (%): 9.6
- mol: "Cc1cccc2c1NC(=O)/C2=N\\Nc1ccc(S(N)(=O)=O)cc1"
  inhibition (%): 1.9
- mol: "CN1CCC(n2cnc(-c3ccc(F)cc3)c2-c2ccnc(N)n2)CC1"
  inhibition (%): 5.12
- mol: "N#Cc1c(NC(=O)CN2CCOCC2)sc2c1CCCC2"
  inhibition (%): 3.19
- mol: "O=C(O[C@H]1CN[C@H](C#Cc2cc3ncnc(Nc4ccc(Cc5ccccc5)cc4)c3s2)C1)N1CCOCC1"
  inhibition (%): 11.2
- mol: "COc1cc2c(cc1Nc1nc(Nc3ccsc3C(N)=O)c3cc[nH]c3n1)N(C(=O)CN(C)C)CCC2(C)C"
  inhibition (%): 5.27
- mol: "CCn1c(-c2nonc2N)nc2cnc(Oc3cccc(NC(=O)c4ccc(N(C)C)cc4)c3)cc21"
  inhibition (%): 0.76
- mol: "COc1ccc2[nH]c3c4[nH]c5ccc(OC)cc5c4c4c(c3c2c1)C(=O)NC4=O"
  inhibition (%): 14.6
- mol: "Cc1ccc(O)cc1Nc1ccnc2cc(-c3ccccn3)ccc12"
  inhibition (%): 7.92
